Please respond with reported self-splicing fitness (ln) for every item in the list.
Assay: self-splicing fitness, log relative to wild type (ln ratio); higher = more splicing; Tetrahymena group I intron in knt gene, E. coli kanamycin selection, DiMSum; sequences stand for … in CUCUCU…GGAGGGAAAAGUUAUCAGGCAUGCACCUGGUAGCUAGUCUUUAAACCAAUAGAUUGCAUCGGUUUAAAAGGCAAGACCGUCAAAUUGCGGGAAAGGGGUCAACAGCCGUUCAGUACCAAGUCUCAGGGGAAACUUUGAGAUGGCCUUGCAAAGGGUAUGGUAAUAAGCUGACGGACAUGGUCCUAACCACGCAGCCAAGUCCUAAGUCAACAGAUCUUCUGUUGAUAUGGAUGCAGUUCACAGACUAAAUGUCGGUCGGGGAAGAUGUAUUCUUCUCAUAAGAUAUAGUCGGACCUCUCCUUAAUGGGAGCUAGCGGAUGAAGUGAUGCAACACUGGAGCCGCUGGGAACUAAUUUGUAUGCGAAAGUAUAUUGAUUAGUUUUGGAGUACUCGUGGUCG;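 further: selection with 25 µg/mL kanamycin versus none on LB agar overnight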
Conditions: 30 °C
One number for each entry.

See these solved cases before continuing.
CGACAGCAAUAUUACGAUCU ... -0.335
GCCAAGCAAUAUUACGUCUU ... -3.28
UAAAAGCAAUAUUACGGAGA ... -2.31
CGCCAGCAAUAUUACGUCGA ... -2.94
GCCAAGCAAUAUUACGAGAC ... -2.73

Please go through the list and note self-splicing fitness (ln) for each sequence.
1. UAUAAGCAAUAUUACGUACC
2. GUCAAGCAAUAUUACGAGCU
3. GUAGAGCAAUAUUACGCAUG
4. CACGAGCAAUAUUACGUCCG
5. UUCCAGCAAUAUUACGGAGG

Result:
[-2.51, -3.49, -1.94, -1.34, -3.51]

Please go through the list and note self-splicing fitness (ln) for each sequence.
1. UACGAGCAAUAUUACGGGCA
2. UGACAGCAAUAUUACGCGGG
3. CGUAAGCAAUAUUACGAACA
4. UCGUAGCAAUAUUACGAACU
5. GCUGAGCAAUAUUACGACAC
6. AUUCAGCAAUAUUACGUAGG
7. CCCGAGCAAUAUUACGGGGA
8. AACUAGCAAUAUUACGAAGC

Result:
-1.77
-2.59
-1.23
-3.21
-1.67
-1.64
-3.49
-2.35
